# conditionSet: siRNA; note: test system not given here
HELM strings list units from the 5' end as sugar, base in round brackets, then linkage (d deoxyribose, r ribose, m 2'-O-methyl, p phosphodiester). Strings are as the collection lists them, not checked against the first reports. ss, as = sense and antisense strand; [lna] = locked nucleic acid (LNA); [s4r] = 4'-thioribose
target mRNA knockdown by entry:

[
  {
    "substance": "RNA1{m(C)p.r(U)p.m(C)p.r(C)p.m(U)p.r(U)p.m(C)p.r(A)p.m(U)p.r(U)p.m(C)p.r(C)p.m(A)p.r(G)p.m(C)p.r(C)p.m(U)p.r(A)p.m(U)p.r(T)p.r(T)}|RNA2{r(A)p.r(U)p.r(A)p.r(G)p.r(G)p.r(C)p.r(U)p.r(G)p.r(G)p.r(A)p.r(A)p.r(U)p.r(G)p.r(A)p.r(A)p.r(G)p.r(G)p.r(A)p.r(G)p.r(T)p.r(T)}$$$RNA1{StrandType:ss}|RNA2{StrandType:as}$",
    "target mRNA knockdown": "51%"
  },
  {
    "substance": "RNA1{r(A)p.r(A)p.r(A)p.r(C)p.r(A)p.r(U)p.r(G)p.r(C)p.r(A)p.r(G)p.r(A)p.r(A)p.r(A)p.r(A)p.r(U)p.r(G)p.r(C)p.r(U)p.r(G)p.r(T)p.r(T)}|RNA2{r(C)p.r(A)p.r(G)p.r(C)p.r(A)p.r(U)p.r(U)p.r(U)p.r(U)p.r(C)p.r(U)p.r(G)p.r(C)p.r(A)p.r(U)p.[s4r](G)p.[s4r](U)p.[s4r](U)p.[s4r](U)p.r(T)p.r(T)}$$$RNA1{StrandType:ss}|RNA2{StrandType:as}$",
    "target mRNA knockdown": "52.7%"
  },
  {
    "substance": "RNA1{r(A)p.r(A)p.m(C)p.r(A)p.r(G)p.r(U)p.r(C)p.r(C)p.r(U)p.m(U)p.r(A)p.r(G)p.r(C)p.m(U)p.r(A)p.r(C)p.r(G)p.r(C)p.m(U)p.r(T)p.r(T)}|RNA2{r(A)p.r(G)p.r(C)p.r(G)p.m(U)p.r(A)p.r(G)p.r(C)p.m(U)p.r(A)p.r(A)p.r(G)p.r(G)p.r(A)p.r(C)p.m(U)p.r(G)p.r(U)p.r(U)p.r(T)p.r(T)}$$$RNA1{StrandType:ss}|RNA2{StrandType:as}$",
    "target mRNA knockdown": "85%"
  },
  {
    "substance": "RNA1{r(G)p.r(A)p.r(C)p.r(G)p.r(U)p.r(A)p.r(A)p.r(A)p.r(C)p.r(G)p.r(G)p.r(C)p.r(C)p.r(A)p.r(C)p.r(A)p.r(A)p.r(G)p.r(U)p.[lna](T)p.[lna](C)}|RNA2{r(A)p.r(C)p.[lna](T)p.r(U)p.r(G)p.[lna](T)p.r(G)p.r(G)p.r(C)p.r(C)p.r(G)p.r(U)p.r(U)p.[lna](T)p.r(A)p.r(C)p.r(G)p.[lna](T)p.r(C)p.[lna](G)p.[lna](C)}$$$RNA1{StrandType:ss}|RNA2{StrandType:as}$",
    "target mRNA knockdown": "3%"
  },
  {
    "substance": "RNA1{r(A)p.r(U)p.r(C)p.r(C)p.m(U)p.r(G)p.m(C)p.r(A)p.r(G)p.r(A)p.r(A)p.r(G)p.r(A)p.r(A)p.r(G)p.r(C)p.r(C)p.r(U)p.r(C)p.r(T)p.r(T)}|RNA2{r(G)p.r(A)p.r(G)p.r(G)p.r(C)p.r(U)p.r(U)p.r(C)p.r(U)p.r(U)p.r(C)p.r(U)p.r(G)p.r(C)p.r(A)p.r(G)p.r(G)p.r(A)p.r(U)p.r(T)p.r(T)}$$$RNA1{StrandType:ss}|RNA2{StrandType:as}$",
    "target mRNA knockdown": "74%"
  }
]

* * *

# conditionSet: siRNA
HELM strings list units from the 5' end as sugar, base in round brackets, then linkage (d deoxyribose, r ribose, m 2'-O-methyl, p phosphodiester). Strings are as the collection lists them, not checked against the first reports. ss, as = sense and antisense strand; [hna] = hexitol nucleic acid; [fl2r] = 2'-fluoro
Each item that follows carries a reported target mRNA knockdown.

[
  {
    "substance": "RNA1{r(G)p.r(A)p.r(C)p.r(G)p.[hna](U)p.r(A)p.r(A)p.[hna](A)p.r(C)p.r(G)p.[hna](G)p.r(C)p.r(C)p.[hna](A)p.r(C)p.r(A)p.r(A)p.r(G)p.r(U)p.[hna](U)p.d(T)}|RNA2{[fl2r](A)p.m(C)p.[fl2r](U)p.m(U)p.[fl2r](G)p.m(U)p.[fl2r](G)p.m(G)p.[fl2r](C)p.m(C)p.[fl2r](G)p.m(U)p.[fl2r](U)p.m(U)p.[fl2r](A)p.m(C)p.[fl2r](G)p.m(U)p.[fl2r](C)p.m(G)p.[fl2r](C)}$$$RNA1{StrandType:ss}|RNA2{StrandType:as}$",
    "target mRNA knockdown [%]": 13.2
  },
  {
    "substance": "RNA1{r(U)p.r(U)p.r(C)p.[fl2r](U)p.r(A)p.r(A)p.r(C)p.r(C)p.r(G)p.r(G)p.r(G)p.[fl2r](C)p.r(A)p.r(G)p.r(C)p.r(U)p.r(U)p.r(C)p.r(U)p.r(T)p.r(T)}|RNA2{r(A)p.r(G)p.r(A)p.r(A)p.r(G)p.r(C)p.[fl2r](U)p.r(G)p.r(C)p.r(C)p.r(C)p.r(G)p.r(G)p.r(U)p.[fl2r](U)p.r(A)p.r(G)p.r(A)p.r(A)p.r(T)p.r(T)}$$$RNA1{StrandType:ss}|RNA2{StrandType:as}$",
    "target mRNA knockdown [%]": 71
  }
]

* * *

Each record here notes measured target mRNA knockdown.
# conditionSet: siRNA
HELM strings list units from the 5' end as sugar, base in round brackets, then linkage (d deoxyribose, r ribose, m 2'-O-methyl, p phosphodiester). Strings are as the collection lists them, not checked against the first reports. ss, as = sense and antisense strand; [lna] = locked nucleic acid (LNA); [hna] = hexitol nucleic acid; [fl2r] = 2'-fluoro
outcomeMeasure: target mRNA knockdown (%)

[
  {
    "substance": "RNA1{m(U)p.r(C)p.m(U)p.r(A)p.m(C)p.r(A)p.m(C)p.r(C)p.m(G)p.r(C)p.m(G)p.r(C)p.m(C)p.r(C)p.m(C)p.r(C)p.m(C)p.r(U)p.m(C)p.r(T)p.r(T)}|RNA2{r(G)p.r(A)p.r(G)p.r(G)p.r(G)p.r(G)p.r(G)p.r(G)p.r(C)p.r(G)p.r(C)p.r(G)p.r(G)p.r(U)p.r(G)p.r(U)p.r(A)p.r(G)p.r(A)p.r(T)p.r(T)}$$$RNA1{StrandType:ss}|RNA2{StrandType:as}$",
    "outcomeMeasure": "target mRNA knockdown",
    "measurementUnit": "%",
    "val": 39
  },
  {
    "substance": "RNA1{m(A)p.m(A)p.r(C)p.r(C)p.r(C)p.m(A)p.r(C)p.r(C)p.m(A)p.r(C)p.m(A)p.r(G)p.r(C)p.m(U)p.m(A)p.r(G)p.m(A)p.m(A)p.r(C)p.r(U)p.r(U)}|RNA2{r(A)p.r(A)p.r(G)p.r(U)p.r(U)p.r(C)p.m(U)p.r(A)p.r(G)p.r(C)p.r(U)p.r(G)p.r(U)p.r(G)p.r(G)p.r(U)p.r(G)p.r(G)p.r(G)p.r(U)p.r(U)}$$$RNA1{StrandType:ss}|RNA2{StrandType:as}$",
    "outcomeMeasure": "target mRNA knockdown",
    "measurementUnit": "%",
    "val": 32
  },
  {
    "substance": "RNA1{r(G)p.r(A)p.r(A)p.r(G)p.r(A)p.[fl2r](U)p.r(A)p.r(G)p.r(G)p.r(A)p.r(A)p.r(G)p.r(G)p.r(G)p.r(G)p.r(C)p.r(U)p.r(U)p.r(C)p.r(T)p.r(T)}|RNA2{r(G)p.r(A)p.r(A)p.r(G)p.r(C)p.r(C)p.r(C)p.r(C)p.r(U)p.r(U)p.r(C)p.r(C)p.[fl2r](U)p.r(A)p.r(U)p.r(C)p.r(U)p.r(U)p.r(C)p.r(T)p.r(T)}$$$RNA1{StrandType:ss}|RNA2{StrandType:as}$",
    "outcomeMeasure": "target mRNA knockdown",
    "measurementUnit": "%",
    "val": 56
  },
  {
    "substance": "RNA1{r(G)p.r(A)p.r(U)p.r(U)p.r(C)p.r(C)p.r(A)p.r(A)p.r(A)p.r(C)p.r(C)p.r(C)p.r(C)p.r(A)p.r(C)p.m(U)p.r(A)p.r(U)p.r(C)p.r(T)p.r(T)}|RNA2{r(G)p.r(A)p.r(U)p.m(A)p.r(G)p.r(U)p.r(G)p.r(G)p.r(G)p.r(G)p.r(U)p.r(U)p.r(U)p.r(G)p.r(G)p.r(A)p.r(A)p.r(U)p.r(C)p.r(T)p.r(T)}$$$RNA1{StrandType:ss}|RNA2{StrandType:as}$",
    "outcomeMeasure": "target mRNA knockdown",
    "measurementUnit": "%",
    "val": 69
  },
  {
    "substance": "RNA1{r(G)p.r(A)p.r(C)p.r(G)p.r(U)p.r(A)p.r(A)p.r(A)p.r(C)p.r(G)p.r(G)p.r(C)p.r(C)p.r(A)p.r(C)p.r(A)p.r(A)p.r(G)p.[hna](U)p.[hna](U)p.r(C)}|RNA2{r(A)p.r(C)p.[lna](T)p.r(U)p.r(G)p.[lna](T)p.r(G)p.r(G)p.r(C)p.r(C)p.r(G)p.r(U)p.r(U)p.[lna](T)p.r(A)p.r(C)p.r(G)p.[lna](T)p.r(C)p.[lna](G)p.[lna](C)}$$$RNA1{StrandType:ss}|RNA2{StrandType:as}$",
    "outcomeMeasure": "target mRNA knockdown",
    "measurementUnit": "%",
    "val": 13.3
  }
]

Ref: the OligoGym collection
